Values were extracted from patent US10647680B2.

# Test system: UniProtKB P05177
# Sequence (P05177 1-516): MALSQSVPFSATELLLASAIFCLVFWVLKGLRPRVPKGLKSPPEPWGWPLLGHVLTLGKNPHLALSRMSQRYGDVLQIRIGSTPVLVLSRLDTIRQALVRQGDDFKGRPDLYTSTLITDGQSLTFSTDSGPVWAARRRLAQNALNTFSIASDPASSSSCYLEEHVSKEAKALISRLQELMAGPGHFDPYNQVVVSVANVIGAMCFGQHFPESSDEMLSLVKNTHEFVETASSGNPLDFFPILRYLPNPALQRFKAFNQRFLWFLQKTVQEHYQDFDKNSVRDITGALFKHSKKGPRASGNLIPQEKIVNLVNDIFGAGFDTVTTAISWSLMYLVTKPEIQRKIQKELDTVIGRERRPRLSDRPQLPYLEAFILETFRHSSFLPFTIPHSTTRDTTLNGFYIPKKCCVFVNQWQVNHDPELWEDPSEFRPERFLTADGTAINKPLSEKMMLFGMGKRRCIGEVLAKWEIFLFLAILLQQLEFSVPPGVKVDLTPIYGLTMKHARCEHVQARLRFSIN
Reported metric: IC50

Item under review: COCCOc1ccc2c(c1)ncn2-c1ccc(NC(=O)Nc2cc(C(C)(C)C)n[nH]2)cc1 [Compound 77] . Reported IC50?
> 50 µM

----------
# Assay method text: In vivo pharmacokinetics in rats
# Design: species or system rat
# Applied conditions: male, SD, rat, plasma, po, 10 mg/kg, orally, 10 mg/kg, Mean, read-out: AUC(0-t)
Structures can show the parent of a compound that is named as a salt.
Reported metric: AUC(0-t) (ng·h/mL)
Express it in ng·h/mL; write the number only.

Need AUC(0-t), item COCCOc1ccc2c(c1)ncn2-c1ccc(NC(=O)Nc2cc(C(C)(C)C)n[nH]2)cc1 [Compound 77 Mesylate]
6770

----------
Reported GI50 values for the following compounds.
# Test system: MOLM-13 (FLT3 ITD+/− mutant type)
# Assay method text: In vitro growth inhibition (GI50), MOLM-13
# Type: cell-based, human
# Applied conditions: Homo sapiens, MOLM-13; Cell lines of leukemia; read-out: GI 50 MOLM-13 FLT3 (ITD+/−)

Use these answered entries as a reference point.
CC(C)(C)c1cc(NC(=O)Nc2ccc(-n3cnc4ccccc43)nc2)no1 [Compound 42] ... 1 to 10 nM
COCCOc1ccc2ncn(-c3ccc(NC(=O)Nc4cc(C(C)(C)C)on4)cc3)c2c1 [Compound 26] ... 0.1 to 1 nM

Could you share which GI50 value was measured for COCCOc1ccc2ncn(-c3ccc(NC(=O)n4nc(C(C)(C)C)cc4N)cc3)c2c1 [Compound 128] ?
10 to 100 nM

Entry Cc1nc2ccccc2n1-c1ccc(NC(=O)Nc2cc(C(C)(C)C)on2)cc1 [Compound 35] has what GI50?
100 to 1000 nM

GET /values?readout=GI50&item= CC(C)(C)c1cc(NC(=O)Nc2ccc(-n3cnc4ccccc43)cc2)on1 [Compound 133]
1 to 10 nM

What GI50 value was documented for this compound, CCOC(=O)c1ccc(-n2nc(C(C)(C)C)cc2NC(=O)Nc2ccc(-n3cnc4ccccc43)cc2)cc1 [Compound 111] ?
1 to 10 nM

Requested read-out: GI50. Entry: CC(C)(C)c1cc(NC(=O)Nc2ccc(-n3ccc4ccccc43)cc2)no1 [Compound 44]
> 1000 nM

Item under review: CC(C)(C)c1cc(NC(=O)Nc2ccc(-n3ccc4cccnc43)cc2)no1 [Compound 49] . Reported GI50?
100 to 1000 nM

----------
# Tested on: MOLM-13 (FLT3 ITD+/− mutant type)
# Assay method text: In vitro growth inhibition (GI50), MOLM-13
# Assay type: cell-based, human
# Applied conditions: Homo sapiens, MOLM-13; Cell lines of leukemia; read-out: GI 50 MOLM-13 FLT3 (ITD+/−)
Some compounds, each annotated with its measured GI50.

Study these solved cases before continuing.
CC(C)(C)c1cc(NC(=O)Nc2ccc(-n3cnc4ccccc43)cc2)n(-c2ccccc2)n1 ... 0.1 to 1 nM
CC(C)(C)c1cc(NC(=O)Nc2ccc(-n3cnc4cc(OC(=O)N5CCOCC5)ccc43)cc2)no1 ... 0.1 to 1 nM
Cc1ccc2ncn(-c3ccc(NC(=O)Nc4cc(C(C)(C)C)on4)cc3)c2n1 ... 1 to 10 nM

Now look at this one.
# input compound: CC(C)(C)c1cc(NC(=O)Nc2ccc(-n3cnc4cc(C(F)(F)F)ccc43)cc2)no1 ; wanted: its GI50
1 to 10 nM

----------
GI50 listing for selected molecules.
# Test system: MOLM-13 (FLT3 ITD+/− mutant type)
# Assay method text: In vitro growth inhibition (GI50), MOLM-13
# Type: cell-based, human
# Applied conditions: Homo sapiens, MOLM-13; Cell lines of leukemia; read-out: GI 50 MOLM-13 FLT3 (ITD+/−)

CC(C)(C)c1cc(NC(=O)Nc2ccc(-n3cnc4cc(C(F)(F)F)cnc43)cc2)no1 [Compound 52] ... 1 to 10 nM
CC(C)(C)c1cc(NC(=O)Nc2ccc(-n3cnc4ccccc43)cc2Cl)no1 [Compound 41] ... 10 to 100 nM
CC(C)(C)c1cc(NC(=O)Nc2ccc(-n3cnc4ccccc43)cc2)n(-c2ccc(F)cc2)n1 [Compound 108] ... 10 to 100 nM

Attention now turns to another entry.
# query: GI50 of entry CC(C)(C)c1cc(NC(=O)Nc2ccc(-n3cnc4cc(OCC5CCCO5)ccc43)cc2)no1 (stereo not shown) [Compound 10]
0.1 to 1 nM

----------
# System: Kasumi-1 (c-Kit N822K mutant type)
# Assay method text: In vitro growth inhibition (GI50), Kasumi-1
# Assay type: cell-based
# Applied conditions: Homo sapiens, Cell lines of leukemia, read-out: GI 50 Kasumi-1 Kit (N822K)
Recorded GI50 for the following compounds

The following compounds have reported results that may help.
CC(C)(C)c1cc(NC(=O)Nc2ccc(-n3cnc4cc(OCC#N)ccc43)cc2)[nH]n1 [Compound 83] ... > 1000 nM
CC(C)(C)c1cc(NC(=O)Nc2ccc(-n3cnc4cc(F)ccc43)cc2)[nH]n1 [Compound 69] ... > 1000 nM
CC(C)(C)c1cc(NC(=O)Nc2ccc(-n3cnc4cc(OCCN5CCOCC5)ccc43)cc2)[nH]n1 [Compound 89] ... 100 to 1000 nM
CC(C)(C)c1cc(NC(=O)Nc2ccc(-n3cnc4cc(Oc5nsnc5N5CCOCC5)ccc43)cc2)[nH]n1 [Compound 95] ... > 1000 nM
CC(C)(C)c1cc(NC(=O)Nc2ccc(-n3cnc4ccccc43)cc2)on1 [Compound 133] ... > 1000 nM
CC(C)(C)c1cc(NC(=O)Nc2ccc(-n3cnc4ccccc43)c(F)c2)no1 [Compound 39] ... > 1000 nM

Need GI50, item CC(C)Oc1ccc2c(c1)ncn2-c1ccc(NC(=O)Nc2cc(C(C)(C)C)on2)cc1 [Compound 8]
> 1000 nM

Any idea what GI50 was measured for CC(C)(C)c1cc(NC(=O)Nc2ccc(-n3cnc4cc(F)ccc43)cc2)no1 [Compound 22] ?
> 1000 nM

GI50 for CC(C)(C)c1cc(NC(=O)Nc2ccc(-n3cnc4ccccc43)cc2)n(-c2ccc(F)cc2)n1 [Compound 108] ?
> 1000 nM

Which value of GI50 has been reported for CC(C)(C)c1cc(NC(=O)Nc2ccc(-n3cnc4cc(O)ccc43)cc2)no1 [Compound 4] in the records?
100 to 1000 nM

What value of GI50 has been recorded for this entry: CC1(COc2ccc3c(c2)ncn3-c2ccc(NC(=O)Nc3cc(C(C)(C)C)n[nH]3)cc2)COC1 [Compound 85]
> 1000 nM

I have this compound here, CC(C)(C)c1cc(NC(=O)Nc2ccc(-n3cnc4ccccc43)cc2)[nH]n1 [Compound 68] , and I need its recorded GI50.
> 1000 nM

----------
# System: MOLM-13 (FLT3 ITD+/− mutant type)
# Assay method text: In vitro growth inhibition (GI50), MOLM-13
# Type: cell-based, human
# Applied conditions: Homo sapiens, MOLM-13; Cell lines of leukemia; read-out: GI 50 MOLM-13 FLT3 (ITD+/−)
Reported metric: GI50

Guide cases for GI50, answers given:
CN(C)CCCOc1ccc2c(c1)ncn2-c1ccc(NC(=O)Nc2cc(C(C)(C)C)n[nH]2)cc1 ... 0.01 to 0.1 nM
COCCOc1ccc2c(c1)ncn2-c1ccc(NC(=O)Nc2cc(C(C)(C)C)n[nH]2)cc1 ... 0.01 to 0.1 nM
CC(C)(C)c1cc(N)n(C(=O)Nc2ccc(-n3cnc4ccccc43)cc2)n1 ... 10 to 100 nM
CC(C)(C)c1cc(N)n(C(=O)Nc2ccc(-n3cnc4cc(C(F)(F)F)ccc43)cc2)n1 ... 10 to 100 nM
CN1CCN(CCCOc2ccc3c(c2)ncn3-c2ccc(NC(=O)Nc3cc(C(C)(C)C)on3)cc2)CC1 ... 0.1 to 1 nM
CCOCCOc1ccc2c(c1)ncn2-c1ccc(NC(=O)Nc2cc(C(C)(C)C)on2)cc1 ... 0.1 to 1 nM
CC(C)(C)c1cc(NC(=O)Nc2ccc(-n3cnc4cc(OCCN5CCCCCC5)ccc43)cc2)no1 ... 1 to 10 nM
CC(C)(C)c1cc(NC(=O)Nc2ccc(-n3cnc4cc(OCC5CCCO5)ccc43)cc2)[nH]n1 (stereo not shown) ... 0.1 to 1 nM
CC(C)(C)c1cc(NC(=O)Nc2ccc(-n3cnc4cc(O)ccc43)cc2)no1 ... 0.1 to 1 nM
COc1cc2ncn(-c3ccc(NC(=O)Nc4cc(C(C)(C)C)n[nH]4)cc3)c2cc1OC ... 0.1 to 1 nM

# input for lookup
I'd like to know its GI50. The molecule in question is CC(C)(C)c1cc(NC(=O)Nc2ccc(-n3cnc4ccccc43)cc2)no1
0.1 to 1 nM
